Tested on: HL-60
TEST METHOD NOTES: NCI tumour cell line growth inhibition, 48 h
The source made the active and inactive calls. Cut-off read from the data, not from the text of the source: active = GI50 up to about 1.1 µM and inactive = higher.

{"columns": ["COMPOUND", "GI50"],
 "data": [
  ["COc1nncc2[nH]c(-c3ccccc3)cc12", "30.9 µM (inactive)"],
  ["Fc1ccc(/C(=N/Cc2ccccc2)N2CCOCC2)cc1", "> 100 µM (inactive)"],
  ["Cc1ccc(NC(=O)OCC(COc2ccc(Cl)cc2)OC(=O)Nc2ccc(C)cc2)cc1 (centres undefined)", "0.938 µM (active)"],
  ["CC(O)C(CO)NC(=O)C1CSSCC(NC(=O)C(N)Cc2ccccc2)C(=O)NC(Cc2ccccc2)C(=O)NC(Cc2c[nH]c3ccccc23)C(=O)NC(CCCCN)C(=O)NC(C(C)O)C(=O)N1 (centres undefined)", "> 100 µM (inactive)"],
  ["CCCCCCCCCCCCCC(=O)OC(/C=C/C(C)C)C(O)C(O)C(OC)C(=O)NC1CCCCNC1=O (centres undefined)", "0.9 µM (active)"],
  ["O=C(CSc1nnc(-c2ccc(/N=C\\c3ccc(Cl)cc3)cc2)o1)Nc1ccc(Cl)cc1", "> 100 µM (inactive)"],
  ["CCNC(=S)/N=c1\\sc(NCC)nc2sc3c(c12)CCN(N1CCc2c(sc4nc(NCC)s/c(=N\\C(=S)NCC)c24)C1)C3", "98.2 µM (inactive)"],
  ["N#C[BH2-][n+]1cn(C2CC(OP(=O)(O)OCC3OC(n4cnc5c(=O)[nH]c(N)nc54)CC3O)C(CO)O2)c2nc(N)[nH]c(=O)c21 (centres undefined)", "> 100 µM (inactive)"],
  ["C=C(C)[C@@H]1CC[C@]2(CO)CC[C@]3(C)[C@H](CC[C@@H]4[C@@]5(C)CC[C@H](O)C(C)(C)[C@@H]5CC[C@]43C)[C@@H]12", "34 µM (inactive)"],
  ["CCCCNC(=O)N/C=C1\\C(=O)Oc2ccccc2C1=O", "22.1 µM (inactive)"],
  ["Cc1ccc(C(=O)/C=C/c2cccc([N+](=O)[O-])c2)cc1", "36.6 µM (inactive)"],
  ["O=c1c(C(c2ccco2)c2c(O)oc3ccccc3c2=O)c(O)oc2ccccc12", "67.5 µM (inactive)"],
  ["COC(=O)C(=O)C(C#N)c1c(Cl)cccc1Cl (centres undefined)", "> 100 µM (inactive)"],
  ["COc1cccc(N(CN2C(=O)CCC2OC)C(C)=O)c1 (centres undefined)", "22.6 µM (inactive)"],
  ["CC/C(=C\\c1ccc(Cl)c(Cl)c1)[N+](=O)[O-]", "1.18 µM (inactive)"],
  ["CCOC(=O)/C(=C\\c1ccc(N(CCC#N)CCC#N)cc1)NC(=O)c1cc([N+](=O)[O-])ccc1Cl", "> 100 µM (inactive)"],
  ["CC(C)n1c2c([n+](C)c1/C=C/c1ccccc1)C(=O)c1ccccc1C2=O", "0.02 µM (active)"],
  ["N#Cc1c2c(c(N=[N+]=[N-])n3c1nc1ccccc13)CCCC2", "2.32 µM (inactive)"],
  ["S=C(N/N=C(\\c1ccccc1)c1ccccn1)NC1CCCCC1", "0.16 µM (active)"]
]}

###

System: RPMI-8226
TEST METHOD NOTES: NCI tumour cell line growth inhibition, 48 h
Activity calls are given as the source filed them. No stated cut-off is given here; in the data, active = GI50 up to about 1.1 µM and inactive = higher.
Labels: active, inactive

{"columns": ["COMPOUND", "CLASS ASSIGNMENT"],
 "data": [
  ["COc1cc(/C=C2\\C[C@H]3[C@@H]4CC=C5C[C@@H](N6CCCC6)CC[C@]5(C)[C@H]4CC[C@]3(C)[C@H]2O)cc(OC)c1OC", "inactive"],
  ["N#C/C(=C/c1cccnc1)C(=O)c1ccccc1", "inactive"],
  ["Cc1cc2c([nH]c3ccccc32)c2c1OC(C)(C)C1C3CC(C)(C)Oc4c(C)cc5c6ccccc6n(c5c43)C21 (stereo not drawn)", "inactive"],
  ["C/C(CC(=O)Nc1ccc(Cl)c(Cl)c1)=N/NC(=O)C[N+](C)(C)C", "inactive"],
  ["CCCCCCCCCCCCCCCCCCOc1ccc(/C=C/C2=[N+](CCCl)CCO2)cc1", "inactive"],
  ["N#CCCC1(CCC#N)CCCCCCCCC(CCC#N)(CCC#N)C(O)C1O (stereo not drawn)", "active"],
  ["CN1N=C(c2ccccc2)c2cc(Cl)ccc2N=C1N/N=C/c1ccc(N(C)C)cc1", "inactive"],
  ["CC(=O)NC1C(OCc2ccccc2)OC(COC(=O)CCCCCCCCCCNC(=O)c2cccc3c(=O)c4ccccc4[nH]c23)C(O)C1OC(C)C(=O)NC(C)C(=O)NC(CCC(N)=O)C(N)=O (stereo not drawn)", "inactive"],
  ["O=C1/C(=N\\O)S(=O)(=O)c2ccccc21", "inactive"],
  ["Cc1cc2c(cc1C)[n+]([O-])c(C#N)c(Cl)[n+]2[O-]", "inactive"],
  ["CCc1cccc(C)c1NC(=O)CC1C(=O)Nc2ccccc2[S+]1[O-] (stereo not drawn)", "inactive"],
  ["COC(=O)[C@H](CNC(=O)/C=C/c1ccc(OC(C)=O)c(OC(C)=O)c1)NC(=O)/C=C/c1ccc(OC(C)=O)c(OC(C)=O)c1", "inactive"],
  ["CC1(O)CC(C(F)(F)F)(C(F)(F)F)OC1=O (stereo not drawn)", "inactive"],
  ["CC12CCC(C1)C(C)(C)C2OC(=O)c1ccccc1C(=O)O (stereo not drawn)", "inactive"],
  ["N#CC12CCC1C1CCCCC12N1CCSCC1 (stereo not drawn)", "inactive"],
  ["CCc1n[nH]c(=O)n1N=C(c1ccccc1)c1ccccc1", "inactive"],
  ["Nc1c2cc3ccc2nc2ccc(cc12)OCCOCCOCCOCCOCCOCCO3", "inactive"],
  ["O=C(NCCC1CN(S(=O)(=O)C(F)(F)F)c2ccccc21)OCc1ccccc1 (stereo not drawn)", "inactive"],
  ["CC(C)(C)c1cc2c(OC/C=C/c3ccccc3)c(c1)Cc1cc(C(C#N)(OC/C=C/c3ccccc3)OC/C=C/c3ccccc3)cc(c1OC/C=C\\c1ccccc1)Cc1cc(C(C)(C)C)cc(c1OC/C=C/c1ccccc1)Cc1cc(C(C#N)(OC/C=C\\c3ccccc3)OC/C=C/c3ccccc3)cc(c1OC/C=C\\c1ccccc1)C2 (stereo not drawn)", "inactive"],
  ["CC(C)C(C)/C=C\\C(C)C1CCC2C3=CC=C4CC(O)CCC4(C)C3CCC21C (stereo not drawn)", "inactive"],
  ["Cn1c(N/N=C/c2ccccc2)nc(-c2ccc([N+](=O)[O-])cc2)c(C#N)c1=O", "inactive"],
  ["CC1=C/C(=C(/c2ccc(O)c(C)c2)c2ccccc2C(=O)O)C=CC1=O", "inactive"],
  ["COc1cc(/C=C2\\CCC(C)/C(=C\\c3cc(OC)c(OC)c(OC)c3)C2=O)cc(OC)c1OC (stereo not drawn)", "active"],
  ["COc1cc([C@H]2c3cc4c(cc3[C@H](NCc3ccc([N+](=O)[O-])cc3)C3COC(=O)[C@H]32)OCO4)cc(OC)c1O (stereo partly drawn)", "active"],
  ["CCOC(=O)c1ccc(-c2onc(C)c2Br)[nH]1", "inactive"],
  ["CN(C)CC1=Nc2cccc3cccc(c23)N1", "inactive"],
  ["Cc1noc2cccc(OCc3ccccc3)c12", "inactive"],
  ["COc1cccc(N(CN2C(=O)CCC2OC)C(C)=O)c1 (stereo not drawn)", "inactive"],
  ["Cc1ccc(/C=C2\\CCCCCC2=O)cc1", "inactive"],
  ["COC(=O)C1C=CCON2CCc3c(n(C)c4ccccc34)C12 (stereo not drawn)", "inactive"],
  ["CC(C)n1c2c([n+](C)c1/C=C/c1ccccc1)C(=O)c1ccccc1C2=O", "active"],
  ["CCN(CC)CCCNc1nncc2cc3c([nH]c4ccccc43)c(C)c12", "inactive"],
  ["CC(C)CC(NC=O)C(=O)NC(Cc1ccccc1)NC(=O)CNC(=O)C(C)NC(=O)C(N)Cc1ccc(O)cc1 (stereo not drawn)", "inactive"],
  ["COc1ccc2nc(-c3ccccn3)cc(O)c2c1", "inactive"],
  ["COC(=O)C1=C(CCCCO[Si](C)(C)C(C)(C)C)NC(=O)N2[C@H](CCOCc3ccccc3)CC[C@@H]12", "inactive"],
  ["CCCCN(CCCC)CC(=O)c1ccc2cc(Cl)c3ccccc3c2c1", "inactive"],
  ["S=C(N/N=C(\\c1ccccc1)c1ccccn1)NC1CCCCC1", "inactive"],
  ["O=C(O)C1C2C=CC(O2)C1C(=O)NCc1ccncc1 (stereo not drawn)", "inactive"]
]}
